These measurements were taken from the supplement of paper PMC9170038.

tested on: MS2 coat protein; test: apparent KD of MS2 coat protein; designed switch direction (-1 OFF switch, 1 ON switch): -1; higher = weaker reporter binding; conditions: input ligand: FMN 200 uM
QUANTITY NAME: apparent KD of MS2 coat protein (nM)
All answers are understood in nM, so give the number only.

Example entries and their recorded answers appear below.
Q: Check the records and state apparent KD of MS2 coat protein for AAGAACUAAGGAUAUACAUGAGGAUCACCCAUGUCUUUUACAUGUUACUGGCCCGCAUGUAGAAGGUAGAAAAG [Tianrasoed] (Eterna round: R96, puzzle: Exclusion 3)
Result: 182

Q: Give the reported value of apparent KD of MS2 coat protein for this record: AGCGCCAUCGUGAGAUGGCGUAUUACAUGAGGAUCACCCAUGUAGGAUAUCGAUUGCUUUGCAGUCGAGAAGGACAUGUUCUUC [JL ENG3 3.80 Mod C] (Eterna round: R96, puzzle: Exclusion NG 3)
Result: 66

Q: Supply measured apparent KD of MS2 coat protein of CGCGUAGGAGGAUAUAUGGCAUACAACAUGAGGAUCACCCAUGUAGUCGCACGUUGGGAUAUAGAAGGCCUGCGAA [Eternabot (L1) Solution 87] (Eterna round: R97, puzzle: Exclusion 5) in your reply.
Result: 18.3

Q: Specify reported apparent KD of MS2 coat protein for the sequence shown: AACCUGAGGCAAAGCUUUAGGUGUACAUGAGGAUCACCCAUGUAGGAUAUGGUAAGCAAAGCUUACCAGAAGGACAUAAUGAUG [Mat - Exclusion NG 3 - Mod of JL - D48] (Eterna round: R96, puzzle: Exclusion NG 3)
Result: 134

New cases:
Q: Specify reported apparent KD of MS2 coat protein for the sequence shown: GGACCUCCUGAGGAUAUUGUAUCACCCGACUGAUAAGAAGGCAGAACAUGAGGAUCACCCAUGUGGGUACUCGG [Bingo-Bango-14] (Eterna round: R97, puzzle: Exclusion 6)
Result: 34.6

====

system: MS2 coat protein; assay: apparent KD of MS2 coat protein; designed switch direction (-1 OFF switch, 1 ON switch): 1; higher = weaker reporter binding; settings: Eterna round: R95; input ligand: none
QUANTITY NAME: apparent KD of MS2 coat protein

Q: Tell us which apparent KD of MS2 coat protein value is on record for AGUCCAGCCAAAGCUGGACAAAAGCAUGUACAUGAGGAUCACCCAUGUUCAUGUACAAGCUUUUUGCUCGUCUUAAA [Mat - hsa-mir-208a - Mod of JL - 56] (puzzle: Sensor for hsa-mir-208a)
Result: 0.465 µM

Q: Specify apparent KD of MS2 coat protein for UACAAUCUAUCUGAGGAUAUCAUGAUGAUAACAUGAGGAUCACCCAUGUGCAGGAAAACUGCAUAUGAGAAGGCAGAUAGAUUGU [salish99_ss2_r3_074] (puzzle: Same State 2) and stop.
Result: 0.0924 µM

Next sequence, apparent KD of MS2 coat protein to be filled in.
Q: Name the recorded apparent KD of MS2 coat protein of the item GUAGGACAUGAGGAUCACCCAUGUGGGAGGGAACGAGGAUAUGUGAUUAGCGAGGAGAGGACAGAAGGCGUGGUAG [JR_SS1_Sub024] (puzzle: Same State 1) in your answer.
Result: 0.0508 µM

====

Overview of reported apparent KD of MS2 coat protein across a group of sequences:
system: MS2 coat protein; experiment: apparent KD of MS2 coat protein; designed switch direction (-1 OFF switch, 1 ON switch): 1; higher = weaker reporter binding; settings: input ligand: FMN 200 uM
Entry rule: numbers only, all in nM.

Study these solved cases before continuing.
Q: Consider the sequence UGAAUGGUGAUAGGAUAUACAUGAGGAAUCCUCGUAGAAGGAUCAUGACAUGAGGAUCACCCAUGUAGCCGUCCGUAGACGGCA [JL SSNG1 1.22] (Eterna round: R96, puzzle: Same State NG 1) . State its measured apparent KD of MS2 coat protein.
Result: 140

Q: Give the reported apparent KD of MS2 coat protein for this sequence. AAGAAACAUGAGGAUCACCCAUGUGAUAAUAUGGGAGGAUAUACAAAGACGAAAGUCGAAGUAGAAGGCCUAUGAA [Garnet 43] (Eterna round: R96, puzzle: Same State 1)
Result: 46.4

Further cases:
Q: Identify measured apparent KD of MS2 coat protein associated with GCUCGAUGAGCUGUUUACAUGAGGAUCACCCAUGUAGAUGCGGAGGAUAUUUACGUGCUUUAUGUAGAGAAGGCCGUAUCGAGC [SameState NG3 #80] (Eterna round: R96, puzzle: Same State NG 3)
Result: 14

====

In this section, each of the sequences is paired with its reported apparent KD of MS2 coat protein.
tested on: MS2 coat protein; assay: apparent KD of MS2 coat protein; designed switch direction (-1 OFF switch, 1 ON switch): -1; higher = weaker reporter binding; settings: input ligand: FMN 200 uM
Provide only the numeric value, understood in nM.

Q: Hello, please tell me recorded apparent KD of MS2 coat protein for this one: UUCUAUUCAGGAUAUACAUGAGGAUCACCCAUGUGAUUUGCCUCGCGGAAGACUAGACGUAGAAGGGAGUCCCU [Eternabot (L2) Solution 7] (Eterna round: R97, puzzle: Exclusion 3)
Result: 91.3

Q: Let me know recorded apparent KD of MS2 coat protein for CACGAAAUGUGAGGAUAUGUGCGACAAAGUUGCACAGAAGGCACAUGAGGAUCACCCAUGUAAGCUAGGUCGAAAGACCUAGCG [Omei Exc(NG)1 Av2] (Eterna round: R96, puzzle: Exclusion NG 1) , thanks.
Result: 269

Moving on to the next sequence.
Q: Input GCUGUGAAUCAGGAUAUGCGGAUAAAGAGUGCCGCAGAAGGGAUAACAUGAGGAUCACCCAUGUUCCUGCAUGA [Eternabot (L2) Solution 99] (Eterna round: R97, puzzle: Exclusion 6) , output reported apparent KD of MS2 coat protein.
Result: 26.5

====

system: MS2 coat protein; assay: apparent KD of MS2 coat protein; higher = weaker reporter binding; conditions: Eterna round: R107; input ligand: theophylline 20 uM
Returns one of YES or NO; YES when apparent KD of MS2 coat protein is >= 60 nM.

Solved cases below.
Q: Item UGACAUUGCUCAGAUACCAGACAUGAGCAUCAGCCAUGUACCAAGAGUACAUGUUAAAAUGUCCCUUGGCAGCUGAGCAAUGUCU [Mod of Eli's TheoBX5 #AlternateMS2 v2] with apparent KD of MS2 coat protein of 60 nM or above?
Result: YES

Q: Form field: apparent KD of MS2 coat protein at least 60 nM? Entry: UUACAUGAGGAUCACCCAUGUCAUAAUGAUACCAGAUAGUUGAUGAUCCCUUGGCAGCAUAGUACCUAGACAUGUGAGUCAUAGG [Ab]
Result: YES

***
Q: Record AAGGUGAUCCGUGAUACCAGCUCAACAUGAGGAUCACCCAUGUAACGGACGAAAGUCCGGAGCCCUUGGCAGCACGGUUGCCAAG [(M)'-(Theo1)-(Ms2)-(Theo2)-(M'')-(T2)'_Design1b] ; criterion: apparent KD of MS2 coat protein no lower than 60 nM. Met?
Result: YES

Q: Quick check, apparent KD of MS2 coat protein >= 60 nM? CGAUACGUAACUGAUACCAGUGUACUGACAUGAGGAUCACCCAUGUUGGGUUUUGUUGUACACCCUUGGCAGCAGAAUCGUAUCG [AstrosExyTheB#18]
Result: YES

Q: Decide: is the reported value of apparent KD of MS2 coat protein for CAUGAUAAGUUGGAUACCAGCAUAUGGAACAACAUGAGGAUCACCCAUGUCAAAUGACAUUGCCCUUGGCAGCCACCUACUGUCA [theeternabot_sameState_MS2_Theo_B_5] equal to or greater than 60 nM?
Result: NO

Q: Check if apparent KD of MS2 coat protein >= 60 nM (inclusive). Item: GUUUUGGGAUCGGCCGCCACUACAUGAGGAUCACCCAUGUGGACAAAUAGGGUUUUUAAGCUCGGUAGGACCGGGAUUCGAACAU [Abeis]
Result: NO

====

Quick list: apparent KD of MS2 coat protein per entry.
test system: MS2 coat protein; assay: apparent KD of MS2 coat protein; designed switch direction (-1 OFF switch, 1 ON switch): -1; higher = weaker reporter binding; conditions: input ligand: microRNA oligo, concentration not stated
Please state the figure in nM; there is no need to write the unit.

Answered examples (2):
Q: Jot down apparent KD of MS2 coat protein (MS2 coat protein) of UGUACGAUGCGUGCUGACAUGCGUCGUGCAGCAGGUGGAACAUGAGGAUCACCCAUGUCCUCAUUUGCUCGUCUUAU [Mat - Sensor v3 - Turn-off var 2 - D21] (Eterna round: R96, puzzle: Sensor v3, turn-off variant 2) .
Result: 104

Q: System MS2 coat protein. Read-out apparent KD of MS2 coat protein. Item CUACUGAAGCUUUGCUUUAGUCGUACAUGAGGAUCACCCAUGUAGGAUAUACAUGAGGAUCACCCAUAGAAGGAUAGAGUGAUC [salish99_ExNG3_r04_602] (Eterna round: R96, puzzle: Exclusion NG 3) . Report value.
Result: 31.2

Continuing:
Q: Fill in: apparent KD of MS2 coat protein on MS2 coat protein, entry AAAUAUCAUGUAGGAUAUGGUAGGCGAACCUUACCAGAAGGACAUGAGGAUCACCCAUGUGCUGAGUUGUCCGUAGACAGCUCU [Ex NG1 #4] (Eterna round: R96, puzzle: Exclusion NG 1)
Result: 63.7

Q: Please report apparent KD of MS2 coat protein with MS2 coat protein for item GCAGCAUAGUCGGAAUACGACAUACAUGAGGAUCACCCAUGUCAGGAUAUGGUCUGGAUUACAGGCCAGAAGGGACAAAGCUGC [Eli exng3 - 007] (Eterna round: R96, puzzle: Exclusion NG 3) .
Result: 17.1
